assay-system: Fibroblast growth factor receptor 1 (Homo sapiens) (UniProt P11362)
experiment-description: Inhibition of N-terminal GST-tagged human FGFR1 cytoplasmic domain (398 to 822 residues) expressed in baculovirus expression system at […] using FAM-labeled peptide as substrate after 10 mins by mobility shift assay relative to control
Overview of reported inhibition across a group of compounds:
recorded-metric: inhibition (%)

INSERT INTO assay_data (smi, reading) VALUES
  ('CCOC(=O)CCC(=O)Nc1cc(Nc2ccc(C(=O)OCC)cc2)ncn1', -4.6),
  ('COc1ccc(/C=C/C(=O)Nc2cc(N3CCN(C)CC3)ncn2)cc1', -6.1),
  ('Fc1ccc(Nc2cc(Nc3ccc(Cl)cc3)ncn2)cc1', 1.8),
  ('COc1cccc(Nc2cc(NC(=O)CCCC(=O)O)ncn2)c1', -5.5),
  ('CCOC(=O)CCC(=O)Nc1cc(Nc2ccc(S(N)(=O)=O)cc2)ncn1', -3.6),
  ('CCOC(=O)CCCC(=O)Nc1cc(Nc2cccc(Cl)c2)ncn1', 0.5),
  ('COc1ccc(Nc2cc(NC(=O)/C=C/c3ccc(F)cc3Br)ncn2)c([N+](=O)[O-])c1', -2.3),
  ('CCOC(=O)c1ccc(Nc2cc(Nc3ccc(C(=O)OCC)cc3)ncn2)cc1', 0),
  ('CCOC(=O)CCC(=O)Nc1cc(Nc2cc(OC)ccc2OC)ncn1', -8.8),
  ('COc1cccc(Nc2cc(Nc3ccc(S(N)(=O)=O)cc3)ncn2)c1', -8.8),
  ('COc1ccc(OC)c(Nc2cc(Nc3ccc(N4CCN(C)CC4)cc3)ncn2)c1', 4.7);

----------
assay-system: High affinity nerve growth factor receptor (Homo sapiens)
experiment-description: Inhibition of N-terminal GST-tagged human TRKA cytoplasmic domain (436 to 790 residues) expressed in baculovirus expression system at 1 uM using FAM-labeled peptide as substrate after 10 mins by mobility shift assay relative to control
recorded-metric: inhibition (%)

INSERT INTO results (smi, recorded_metric, quantity_unit, reading) VALUES
  ('O=C(O)CCCC(=O)Nc1cc(Nc2cccc(Cl)c2)ncn1', 'inhibition', '%', 9.6),
  ('CCOC(=O)c1ccc(Nc2cc(NC(=O)CCCC(=O)O)ncn2)cc1', 'inhibition', '%', 8.4),
  ('COc1cccc(Nc2cc(NC(=O)CCCC(=O)O)ncn2)c1', 'inhibition', '%', 18.8),
  ('COc1cccc(Nc2cc(Nc3cc(OC)ccc3OC)ncn2)c1', 'inhibition', '%', 6.8),
  ('O=C(O)CCCC(=O)Nc1cc(N2CCOCC2)ncn1', 'inhibition', '%', 6),
  ('COc1ccc(Nc2cc(NC(=O)c3ccccc3)ncn2)cc1', 'inhibition', '%', 5.6);

----------
Let's go through some IC50 measurements on Epidermal growth factor receptor (Homo sapiens) together.
Sequence (P00533 whole entry): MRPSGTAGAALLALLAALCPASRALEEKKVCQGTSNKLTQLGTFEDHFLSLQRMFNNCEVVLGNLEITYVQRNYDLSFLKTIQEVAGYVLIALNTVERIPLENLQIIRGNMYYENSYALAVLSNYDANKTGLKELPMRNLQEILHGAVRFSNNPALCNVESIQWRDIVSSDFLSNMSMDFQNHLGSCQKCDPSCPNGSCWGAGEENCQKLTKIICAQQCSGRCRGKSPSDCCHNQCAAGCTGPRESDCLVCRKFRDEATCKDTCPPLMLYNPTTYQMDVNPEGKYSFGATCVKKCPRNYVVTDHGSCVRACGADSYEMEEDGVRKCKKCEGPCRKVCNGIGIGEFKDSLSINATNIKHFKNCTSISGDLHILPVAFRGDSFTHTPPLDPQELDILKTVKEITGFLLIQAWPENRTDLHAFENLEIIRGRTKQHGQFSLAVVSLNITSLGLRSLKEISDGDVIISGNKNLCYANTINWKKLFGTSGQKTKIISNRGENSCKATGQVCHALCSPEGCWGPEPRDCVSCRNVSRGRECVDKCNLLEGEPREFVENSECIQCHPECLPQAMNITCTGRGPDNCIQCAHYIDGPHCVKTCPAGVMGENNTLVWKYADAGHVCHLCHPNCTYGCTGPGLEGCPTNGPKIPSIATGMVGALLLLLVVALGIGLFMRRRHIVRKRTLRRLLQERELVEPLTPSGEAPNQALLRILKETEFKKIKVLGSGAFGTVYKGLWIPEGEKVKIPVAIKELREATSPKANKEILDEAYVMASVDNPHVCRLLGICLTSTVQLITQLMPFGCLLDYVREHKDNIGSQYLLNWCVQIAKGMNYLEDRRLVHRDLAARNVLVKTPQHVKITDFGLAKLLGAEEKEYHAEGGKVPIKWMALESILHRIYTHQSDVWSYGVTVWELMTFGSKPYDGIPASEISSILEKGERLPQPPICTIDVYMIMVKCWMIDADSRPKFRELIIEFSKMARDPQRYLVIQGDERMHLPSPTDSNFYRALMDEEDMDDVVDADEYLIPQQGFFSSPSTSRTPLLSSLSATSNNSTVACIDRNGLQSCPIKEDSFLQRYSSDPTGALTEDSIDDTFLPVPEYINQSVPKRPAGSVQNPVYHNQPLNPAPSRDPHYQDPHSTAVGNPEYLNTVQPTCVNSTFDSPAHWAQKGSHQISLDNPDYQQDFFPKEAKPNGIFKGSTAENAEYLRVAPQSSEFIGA
recorded-metric: IC50 (nM)

INSERT INTO results (smi, qual, reading) VALUES
  ('Clc1ccc(Nc2cc(Nc3cccc(Cl)n3)ncn2)cc1', '=', 324),
  ('COc1cccc(Nc2cc(Nc3cccc(Cl)c3)ncn2)c1', '>', 10000),
  ('COc1ccc(OC)c(Nc2cc(Nc3ccc(N4CCN(C)CC4)cc3)ncn2)c1', '=', 288),
  ('COc1cc(Nc2cc(Nc3ccc(Cl)cc3)ncn2)cc(OC)c1OC', '=', 901),
  ('O=C(O)CCCC(=O)Nc1cc(N2CCOCC2)ncn1', '=', 53),
  ('COc1ccc(OC)c(Nc2cc(NC(=O)CCCC(=O)O)ncn2)c1', '=', 68),
  ('COc1ccc(Nc2cc(NC(=O)c3ccccc3)ncn2)cc1', '=', 81),
  ('COc1cccc(Nc2cc(NC(=O)CCCC(=O)O)ncn2)c1', '=', 37),
  ('O=C(Nc1cc(Nc2ccc(Cl)cc2)ncn1)c1ccc(F)cc1', '>', 10000),
  ('O=C(O)CCCC(=O)Nc1cc(Nc2ccc(Cl)cc2)ncn1', '>', 10000),
  ('COc1ccc(OC)c(Nc2cc(Nc3ccc(F)cc3)ncn2)c1', '=', 336),
  ('COc1ccc(OC)c(Nc2cc(NCCc3cccs3)ncn2)c1', '=', 125),
  ('COc1cccc(Nc2cc(Nc3ccc(S(N)(=O)=O)cc3)ncn2)c1', '>', 10000),
  ('O=C(Nc1cc(N2CCOCC2)ncn1)c1ccc(F)cc1', '=', 131),
  ('O=C(O)CCC(=O)Nc1cc(Nc2ccc(Cl)cc2)ncn1', '>', 10000),
  ('CCOC(=O)c1ccc(Nc2cc(NC(=O)CCCC(=O)O)ncn2)cc1', '=', 48),
  ('CCOC(=O)CCC(=O)Nc1cc(Nc2cccc(Br)c2)ncn1', '>', 10000),
  ('CCOc1ccc(Nc2cc(NC(=O)c3ccccc3)ncn2)cc1', '>', 10000),
  ('O=C(O)CCCC(=O)Nc1cc(Nc2ccccc2)ncn1', '>', 10000),
  ('O=C(O)CCCC(=O)Nc1cc(Nc2cccc(Br)c2)ncn1', '=', 70),
  ('CCOC(=O)CCCC(=O)Nc1cc(Nc2cccc(Cl)c2)ncn1', '=', 27),
  ('COc1ccc(OC)c(Nc2cc(Nc3ccc(S(N)(=O)=O)cc3)ncn2)c1', '=', 779),
  ('CCOC(=O)c1ccc(Nc2cc(Nc3cccc(OC)c3)ncn2)cc1', '>', 10000),
  ('CCNc1cc(Nc2cccc(Cl)c2)ncn1', '=', 170);
